Kindly state kon for each of the entries shown.
tested target: T1, Link_TSG6 (recombinant Link module from human TSG-6) (human, UniProt P98066 36-133)
T1 construct: Link module of human TSG-6 (TNF-stimulated gene/protein 6); residues numbered as in the pre-protein; also called TSG-6 Link module
T1 sequence (P98066 36-133): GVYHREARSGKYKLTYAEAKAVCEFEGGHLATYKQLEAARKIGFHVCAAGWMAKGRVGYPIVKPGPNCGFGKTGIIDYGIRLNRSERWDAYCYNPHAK
test: SPR; Link_TSG6 amine-coupled to a C1 chip (800–1000 RU), chemokine as analyte; BIAcore 3000; 10 mM HEPES, 150 mM NaCl, 0.05% Tween 20, pH 7.4; 40 μl/min; 1:1 Langmuir model; apparent affinities
condition set: both partners purified
Numbers only, in M⁻¹ s⁻¹.

CCL27 (ligand, UniProt Q9Y4X3 25-112, looked up, chemokine CCL27; source: E. coli, purified) FLLPPSTACCTQLYRKPLSDKLLRKVIQVELQEADGDCHLQAFVLHLAQRSICIHPQNPSLSQWFEHQERKLHGTLPKLNFGMLRKMG : 27000
CCL27 K25A (ligand, UniProt Q9Y4X3 25-112, looked up, chemokine CCL27 with K25A; also called CCL27 K25A mutant; source: E. coli, purified) FLLPPSTACCTQLYRKPLSDKLLRAVIQVELQEADGDCHLQAFVLHLAQRSICIHPQNPSLSQWFEHQERKLHGTLPKLNFGMLRKMG : 8100
CXCL11 (ligand, UniProt O14625 22-94, looked up, chemokine CXCL11; CXCL11 is not in the methods' list of chemokines made in E. coli) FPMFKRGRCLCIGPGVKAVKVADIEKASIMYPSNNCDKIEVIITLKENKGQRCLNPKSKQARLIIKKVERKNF : 250000
CCL21 (ligand, UniProt O00585 24-134, looked up, chemokine CCL21; source: E. coli, purified) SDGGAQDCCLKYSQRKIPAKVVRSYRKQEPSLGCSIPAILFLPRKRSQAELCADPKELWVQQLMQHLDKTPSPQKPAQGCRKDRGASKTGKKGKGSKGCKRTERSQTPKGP : 710000

With those in mind, consider the next binder.
# input If you can, please state the reported kon value of CCL19 (ligand, UniProt Q99731 22-98, looked up, chemokine CCL19; source: E. coli, purified) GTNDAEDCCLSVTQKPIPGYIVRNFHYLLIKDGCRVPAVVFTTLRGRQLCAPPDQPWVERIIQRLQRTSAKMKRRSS .
# output 160000

Where these numbers come from: paper PMC4933465
